- PROTOCOL: R-luc BLI signal indicating cell viability in dual-reporter cells
- Type: cell-based, human
- TEST SETTINGS: human; 8505C-PNIS-PCMV cells, 24 hours, screening; read-out: BLI signal activity of R-luc (cell viability) compared to vehicle group
REPORTED PROPERTY: viability at 24 h

Form: compound = Cc1cc2c(N(C)C3CCCCC3)ncnc2s1 [TKI-0266] ; viability at 24 h = ~75%
